Sourced from patent US8431557B2

- Procedure Summary: Plasma concentrations of estradiol and unconjugated estrone (HPLC with MS/MS)
- Format: in vivo, human (women)
- Condition Set: female, human, plasma, topical, 0.27 mg; read-out: Geometric Mean Concentration of E2 (plasma)
Attribute Measured: concentration at 12 weeks (ng/mL)
Note: unit ng/mL is implicit; provide only the numeric part.

Please give the documented concentration at 12 weeks of C[C@]12CC[C@@H]3c4ccc(O)cc4CC[C@H]3[C@@H]1CC[C@@H]2O
0.014

* * *

- Procedure Summary: Plasma concentrations of estradiol and unconjugated estrone (HPLC with MS/MS)
- Type: in vivo, human (women)
- Condition Set: female, human, plasma, topical, 0.375 mg; read-out: Geometric Mean Concentration of E2 (plasma)
Attribute Measured: concentration at 4 weeks (ng/mL)
Note: unit ng/mL is implicit; provide only the numeric part.

Please give the documented concentration at 4 weeks of C[C@]12CC[C@@H]3c4ccc(O)cc4CC[C@H]3[C@@H]1CC[C@@H]2O [estradiol, 17-beta estradiol]
0.0183
